- System: 922993-354-T-J3-PDC complex spheroid viability
- PROTOCOL_TEXT: Anticancer human tumor 922993-354-T-J3-PDC patient-derived endometrial carcinoma cell line growth inhibition [POLQ]
- EXPERIMENTAL_PARAMETERS: compound alone; run of 10/31/2023
QUANTITY: IC50

Cc1cccc(N(C)C(=O)C2C(O)CCN2c2nc(C)cc(C(F)(F)F)c2C#N)c1 (configuration not stated) :: > 10 µM
COC1C(OC(N)=O)C(O)C(Oc2ccc3c(O)c(NC(=O)c4ccc(O)c(CC=C(C)C)c4)c(=O)oc3c2C)OC1(C)C (configuration not stated) :: > 10 µM

* * *

- Tested on: 922993-354-T-J3-PDC complex spheroid viability
- PROTOCOL_TEXT: Anticancer human tumor 922993-354-T-J3-PDC cell line growth inhibition [POLQ];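 note: spheroids exposed to the agents for one week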;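 for viability, T/C: 100% = DMSO vehicle control wells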
- EXPERIMENTAL_PARAMETERS: second compound 0.316 µM; first compound 0.0316 µM; stronger effect = lower value
QUANTITY: viability, T/C (%)

C#Cc1c(F)ccc2cc(O)cc(-c3ncc4c(N5CC6CCC(C5)N6)nc(OCC56CCCN5CC(F)C6)nc4c3F)c12 (stereo not given) + COC1C(OC(N)=O)C(O)C(Oc2ccc3c(O)c(NC(=O)c4ccc(O)c(CC=C(C)C)c4)c(=O)oc3c2C)OC1(C)C :: 105
CC1COCCN1c1cc(C2(O)CC3CCC(C2)O3)c2cnn(-c3ccn[nH]3)c2n1 (stereo not given) + Cc1cccc(N(C)C(=O)C2C(O)CCN2c2nc(C)cc(C(F)(F)F)c2C#N)c1 :: 110
O=c1[nH]cc(F)c(=O)[nH]1 + Nc1ccc(C#CCN(C(=O)Cc2ncc(C(F)(F)F)cc2C(F)(F)F)c2ccc(F)cc2)nn1 :: 104
COc1cc(C2c3cc4c(cc3C(OC3OC5COC(C)OC5C(O)C3O)C3COC(=O)C23)OCO4)cc(OC)c1O (stereo not given) + COC1C(OC(N)=O)C(O)C(Oc2ccc3c(O)c(NC(=O)c4ccc(O)c(CC=C(C)C)c4)c(=O)oc3c2C)OC1(C)C :: 107
CCc1cc2c(N3CCc4c(cc(Cn5ccnc5)cc4-c4cn(C)nc4C(F)(F)F)C3=O)ccnc2c(OC)n1 + Nc1ccc(C#CCN(C(=O)Cc2ncc(C(F)(F)F)cc2C(F)(F)F)c2ccc(F)cc2)nn1 :: 105
CC1COCCN1c1cc(-c2ccnn2C)c2ccnc(-c3ccn[nH]3)c2n1 (stereo not given) + Cc1cccc(N(C)C(=O)C2C(O)CCN2c2nc(C)cc(C(F)(F)F)c2C#N)c1 :: 97.5
COc1ccc([C@@H](O)c2cc(-c3ncnc4cc(N5CCOCC5)ccc34)c(F)cc2Cl)nn1 + COC1C(OC(N)=O)C(O)C(Oc2ccc3c(O)c(NC(=O)c4ccc(O)c(CC=C(C)C)c4)c(=O)oc3c2C)OC1(C)C :: 110
CCCS(=O)(=O)Nc1ccc(F)c(C(=O)c2c[nH]c3ncc(-c4ccc(Cl)cc4)cc23)c1F + Cc1cccc(N(C)C(=O)C2C(O)CCN2c2nc(C)cc(C(F)(F)F)c2C#N)c1 :: 104
CCc1cc2c(N3CCc4c(cc(Cn5ccnc5)cc4-c4cn(C)nc4C(F)(F)F)C3=O)ccnc2c(OC)n1 + Cc1cccc(N(C)C(=O)C2C(O)CCN2c2nc(C)cc(C(F)(F)F)c2C#N)c1 :: 104
O=C(c1cc(Cc2n[nH]c(=O)c3ccccc23)ccc1F)N1CCN(C(=O)C2CC2)CC1 + COC1C(OC(N)=O)C(O)C(Oc2ccc3c(O)c(NC(=O)c4ccc(O)c(CC=C(C)C)c4)c(=O)oc3c2C)OC1(C)C :: 94.6
CCCS(=O)(=O)Nc1ccc(F)c(C(=O)c2c[nH]c3ncc(-c4ccc(Cl)cc4)cc23)c1F + Nc1ccc(C#CCN(C(=O)Cc2ncc(C(F)(F)F)cc2C(F)(F)F)c2ccc(F)cc2)nn1 :: 109
COc1cc(C2c3cc4c(cc3C(OC3OC5COC(C)OC5C(O)C3O)C3COC(=O)C23)OCO4)cc(OC)c1O (stereo not given) + Cc1cccc(N(C)C(=O)C2C(O)CCN2c2nc(C)cc(C(F)(F)F)c2C#N)c1 :: 112
COc1ccc([C@@H](O)c2cc(-c3ncnc4cc(N5CCOCC5)ccc34)c(F)cc2Cl)nn1 + Cc1cccc(N(C)C(=O)C2C(O)CCN2c2nc(C)cc(C(F)(F)F)c2C#N)c1 :: 99.9
C=CCn1c(=O)c2cnc(Nc3ccc(N4CCN(C)CC4)cc3)nc2n1-c1cccc(C(C)(C)O)n1 + COC1C(OC(N)=O)C(O)C(Oc2ccc3c(O)c(NC(=O)c4ccc(O)c(CC=C(C)C)c4)c(=O)oc3c2C)OC1(C)C :: 85
COc1cccc(OCCCN)c1-c1cc(Nc2cnc(C#N)cn2)n[nH]1 + Nc1ccc(C#CCN(C(=O)Cc2ncc(C(F)(F)F)cc2C(F)(F)F)c2ccc(F)cc2)nn1 :: 94.7
Nc1ccn(C2OC(CO)C(O)C2(F)F)c(=O)n1 (stereo not given) + COC1C(OC(N)=O)C(O)C(Oc2ccc3c(O)c(NC(=O)c4ccc(O)c(CC=C(C)C)c4)c(=O)oc3c2C)OC1(C)C :: 11.4
CC[C@@]1(O)C(=O)OCc2c1cc1n(c2=O)Cc2cc3c(CN(C)C)c(O)ccc3nc2-1 + Cc1cccc(N(C)C(=O)C2C(O)CCN2c2nc(C)cc(C(F)(F)F)c2C#N)c1 :: 87
COc1cc2cc(C(=O)CCC(=O)O)sc2cc1OC + COC1C(OC(N)=O)C(O)C(Oc2ccc3c(O)c(NC(=O)c4ccc(O)c(CC=C(C)C)c4)c(=O)oc3c2C)OC1(C)C :: 111
O=C(Nc1ccc(O)c(NS(=O)(=O)c2ccc(F)cc2)c1)c1ccc(-c2ccccc2)cc1 + COC1C(OC(N)=O)C(O)C(Oc2ccc3c(O)c(NC(=O)c4ccc(O)c(CC=C(C)C)c4)c(=O)oc3c2C)OC1(C)C :: 104
Cn1ncnc1[C@H]1c2n[nH]c(=O)c3cc(F)cc(c23)N[C@@H]1c1ccc(F)cc1 + COC1C(OC(N)=O)C(O)C(Oc2ccc3c(O)c(NC(=O)c4ccc(O)c(CC=C(C)C)c4)c(=O)oc3c2C)OC1(C)C :: 96.6

* * *

- System: 922993-354-T-J3-PDC complex spheroid viability
- PROTOCOL_TEXT: Anticancer human tumor 922993-354-T-J3-PDC cell line growth inhibition [POLQ];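 note: spheroids exposed to the agents for one week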
- EXPERIMENTAL_PARAMETERS: curve of compound
- Procedure: Multicellular complex tumor spheroid response to Polymerase (POL) inhibitors (novobiocin, ART-558, RP6685) in combination with a variety of drugs and investigational agents in selected tumor cell lines The POL inhibitors (novobiocin, ART-558, and RP6685) were evaluated both individually and in combination with standard of care and investigational anticancer small molecules within a complex spheroid model of solid tumors. . […]
Reported values of IC50 for individual entries
QUANTITY: IC50

CNCc1ccc(-c2[nH]c3cc(F)cc4c3c2CCNC4=O)cc1 :: > 10 µM
C=CCn1c(=O)c2cnc(Nc3ccc(N4CCN(C)CC4)cc3)nc2n1-c1cccc(C(C)(C)O)n1 :: > 1 µM
O=C(Nc1ccc(O)c(NS(=O)(=O)c2ccc(F)cc2)c1)c1ccc(-c2ccccc2)cc1 :: > 10 µM
O=C(c1cc(Cc2n[nH]c(=O)c3ccccc23)ccc1F)N1CCN(C(=O)C2CC2)CC1 :: > 10 µM
CC(C)n1c(=O)n(C)c2cnc3cc(F)c(-c4ccc(OCCCN5CCCCC5)nc4)cc3c21 :: > 10 µM
C=CC(=O)N1CCN(c2nc(=O)n(-c3c(C)ccnc3C(C)C)c3nc(-c4c(O)cccc4F)c(F)cc23)C(C)C1 (stereo not given) :: > 10 µM
CCCS(=O)(=O)Nc1ccc(F)c(C(=O)c2c[nH]c3ncc(-c4ccc(Cl)cc4)cc23)c1F :: > 10 µM
CC(=O)O[C@H]1C(=O)[C@@]2(C)[C@H]([C@H](OC(=O)c3ccccc3)[C@]3(O)C[C@H](OC(=O)[C@H](O)[C@@H](NC(=O)c4ccccc4)c4ccccc4)C(C)=C1C3(C)C)[C@]1(OC(C)=O)CO[C@@H]1C[C@@H]2O :: > 3 µM
CCc1cc2c(N3CCc4c(cc(Cn5ccnc5)cc4-c4cn(C)nc4C(F)(F)F)C3=O)ccnc2c(OC)n1 :: > 10 µM
CCc1cc2c(N3CCc4c(cc(Cn5ccnc5)cc4-c4cn(C)nc4C(F)(F)F)C3=O)cc(C)nc2c(OC)n1 :: > 10 µM
C#Cc1c(F)ccc2cc(O)cc(-c3ncc4c(N5CC6CCC(C5)N6)nc(OCC56CCCN5CC(F)C6)nc4c3F)c12 (stereo not given) :: > 10 µM
Cn1ncnc1[C@H]1c2n[nH]c(=O)c3cc(F)cc(c23)N[C@@H]1c1ccc(F)cc1 :: > 0.1 µM
COc1cc2cc(C(=O)CCC(=O)O)sc2cc1OC :: > 10 µM
Nc1ccn(C2OC(CO)C(O)C2(F)F)c(=O)n1 (stereo not given) :: < 0.0316 µM
COc1ccc([C@@H](O)c2cc(-c3ncnc4cc(N5CCOCC5)ccc34)c(F)cc2Cl)nn1 :: > 10 µM
